All values here come from PubChem BioAssay AID1159580.

assay-name: chemical genetic growth profiling, strain panel (AID 1159580);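 further: tested at 20 µM; growth read once vehicle control cultures reached saturation at 30 °C; 1 = growth at the plate median or of vehicle wells; lower values mean less growth of the strain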
test-conditions: S. cerevisiae deletion strains, growth OD, locus YKL085W, strain MDH1 (second series)
In all, about 5,500 compounds went through this assay and about 2,000 (36%) were called active. Another 18% or so got no clear call; they are omitted. No stated cut-off is given here; in the data, active means normalized growth mostly below about 0.91 (no sharp cut-off); inconclusive means no clear call, values can overlap the other calls; inactive means mostly above about 0.92. The list shows a part of the results.
A correct response names exactly one class from 1 = active, -1 = inactive

Inquiry: Hi, sorry to bother you, what did the test record for "COc1c(CC=C(C)C)c2c(c3oc(=O)c(-c4ccc(O)cc4)c(O)c13)C=CC(C)(C)O2" ?
Reply text: -1

Inquiry: Hi, sorry to bother you, what did the test record for "CCCCOc1ccc(OCCCN2CCOCC2)cc1" ?
Reply text: -1

Inquiry: Hi, sorry to bother you, what did the test record for "O=c1ccc2ccccc2o1" ?
Reply text: -1

Inquiry: Hi, sorry to bother you, what did the test record for CC1(C)C2CC[C@]3(C)C(C(=O)C=C4[C@@H]5C[C@@](C)(C(=O)O)CC[C@]5(C)CC[C@]43C)[C@@]2(C)CC[C@@H]1OC(=O)CCC(=O)O (some centres undefined) ?
Reply text: -1

Inquiry: Hi, sorry to bother you, what did the test record for NC[C@@H]1O[C@H](O[C@@H]2[C@@H](CO)OC(O[C@@H]3[C@@H](O)[C@H](N)C[C@H](N)[C@H]3OC3O[C@H](CN)[C@@H](O)[C@H](O)[C@H]3N)[C@@H]2O)[C@H](N)[C@@H](O)[C@@H]1O (some centres undefined) ?
Reply text: -1

Inquiry: Hi, sorry to bother you, what did the test record for "OCc1ccccc1O[C@@H]1O[C@H](CO)[C@@H](O)[C@H](O)[C@H]1O" ?
Reply text: -1

Inquiry: Hi, sorry to bother you, what did the test record for CO[C@H]1C[C@H](O[C@H]2[C@H](C)[C@@H](OC3O[C@H](C)C[C@H](N(C)C)[C@H]3O)[C@@H](C)C[C@]3(CO3)C(=O)[C@H](C)[C@@H](O)[C@@H](C)[C@@H](C)OC(=O)[C@@H]2C)O[C@@H](C)[C@@H]1O (some centres undefined) ?
Reply text: -1

Inquiry: Hi, sorry to bother you, what did the test record for CN1CCc2cc3c(cc2C1O)OCO3 (centres undefined) ?
Reply text: -1

Inquiry: Hi, sorry to bother you, what did the test record for "OC(CCN1CCCCC1)(c1ccccc1)c1ccccc1" ?
Reply text: -1

Inquiry: Hi, sorry to bother you, what did the test record for CC1(C)S[C@@H]2[C@H](NC(=O)[C@H](NC(=O)N3CCNC3=O)c3ccccc3)C(=O)N2C1C(=O)O (some centres undefined) ?
Reply text: -1

Inquiry: Hi, sorry to bother you, what did the test record for "Oc1ccc(O)cc1" ?
Reply text: -1

Inquiry: Hi, sorry to bother you, what did the test record for "Cc1ccc(O)cc1" ?
Reply text: -1

Inquiry: Hi, sorry to bother you, what did the test record for CC1(C)C2CC[C@]3(C)C(C(=O)C=C4[C@H]5C[C@@](C)(C(=O)O)CC[C@]5(C)CC[C@]43C)[C@@]2(C)CC[C@@H]1O (some centres undefined) ?
Reply text: -1

Inquiry: Hi, sorry to bother you, what did the test record for "OCCN(CCO)c1nc(N2CCCCC2)c2nc(N(CCO)CCO)nc(N3CCCCC3)c2n1" ?
Reply text: -1

---

assay-name: chemical genetic growth profiling, strain panel (AID 1159580);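 further: tested at 20 µM; growth read once vehicle control cultures reached saturation at 30 °C; 1 = growth at the plate median or of vehicle wells; lower values mean less growth of the strain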
test-conditions: S. cerevisiae deletion strains, growth OD, locus YBR229C, strain ROT2
About 2,000 (36%) of roughly 5,500 compounds were called active. About 18% were inconclusive and are not listed. Cut-off read from the data, not from the text of the source: active = normalized growth mostly below about 0.91 (no sharp cut-off); inconclusive = no clear call, values can overlap the other calls; inactive = mostly above about 0.92. Some of the results follow.
A correct response names exactly one class from Yes = active, No = inactive

Below are worked cases with known answers.
[
  {
    "compound": "CC1(C)C2CC[C@]3(C)C(C(=O)C=C4[C@@H]5C[C@@](C)(C(=O)O)CC[C@]5(C)CC[C@]43C)[C@@]2(C)CC[C@@H]1O (stereo not given in full)",
    "group-label": "No"
  },
  {
    "compound": "CCOC(=O)/C=C(\\C)OP(=O)(OC)OC",
    "group-label": "No"
  },
  {
    "compound": "Cc1c(C(=O)O)cc(-c2ccccc2)n1-c1ccccc1",
    "group-label": "No"
  }
]

Inquiry: Hi, sorry to bother you, what did the test record for "Oc1ccc(O)cc1" ?
Reply text: No

Inquiry: Hi, sorry to bother you, what did the test record for "COc1ccc(-c2coc3c(O)c(OC)ccc3c2=O)cc1" ?
Reply text: Yes

Inquiry: Hi, sorry to bother you, what did the test record for CC1(C)S[C@@H]2[C@H](NC(=O)[C@H](NC(=O)N3CCNC3=O)c3ccccc3)C(=O)N2C1C(=O)O (stereo not given in full) ?
Reply text: No

Inquiry: Hi, sorry to bother you, what did the test record for "CC(=C(CCOP(=O)(O)O)SC(=O)c1ccccc1)N(C=O)Cc1cnc(C)nc1N" ?
Reply text: No
